Recorded IC50 values for a group of compounds are listed next.
# TEST_SYSTEM: TYK2 (Homo sapiens)
# Sequence (P29597 whole entry): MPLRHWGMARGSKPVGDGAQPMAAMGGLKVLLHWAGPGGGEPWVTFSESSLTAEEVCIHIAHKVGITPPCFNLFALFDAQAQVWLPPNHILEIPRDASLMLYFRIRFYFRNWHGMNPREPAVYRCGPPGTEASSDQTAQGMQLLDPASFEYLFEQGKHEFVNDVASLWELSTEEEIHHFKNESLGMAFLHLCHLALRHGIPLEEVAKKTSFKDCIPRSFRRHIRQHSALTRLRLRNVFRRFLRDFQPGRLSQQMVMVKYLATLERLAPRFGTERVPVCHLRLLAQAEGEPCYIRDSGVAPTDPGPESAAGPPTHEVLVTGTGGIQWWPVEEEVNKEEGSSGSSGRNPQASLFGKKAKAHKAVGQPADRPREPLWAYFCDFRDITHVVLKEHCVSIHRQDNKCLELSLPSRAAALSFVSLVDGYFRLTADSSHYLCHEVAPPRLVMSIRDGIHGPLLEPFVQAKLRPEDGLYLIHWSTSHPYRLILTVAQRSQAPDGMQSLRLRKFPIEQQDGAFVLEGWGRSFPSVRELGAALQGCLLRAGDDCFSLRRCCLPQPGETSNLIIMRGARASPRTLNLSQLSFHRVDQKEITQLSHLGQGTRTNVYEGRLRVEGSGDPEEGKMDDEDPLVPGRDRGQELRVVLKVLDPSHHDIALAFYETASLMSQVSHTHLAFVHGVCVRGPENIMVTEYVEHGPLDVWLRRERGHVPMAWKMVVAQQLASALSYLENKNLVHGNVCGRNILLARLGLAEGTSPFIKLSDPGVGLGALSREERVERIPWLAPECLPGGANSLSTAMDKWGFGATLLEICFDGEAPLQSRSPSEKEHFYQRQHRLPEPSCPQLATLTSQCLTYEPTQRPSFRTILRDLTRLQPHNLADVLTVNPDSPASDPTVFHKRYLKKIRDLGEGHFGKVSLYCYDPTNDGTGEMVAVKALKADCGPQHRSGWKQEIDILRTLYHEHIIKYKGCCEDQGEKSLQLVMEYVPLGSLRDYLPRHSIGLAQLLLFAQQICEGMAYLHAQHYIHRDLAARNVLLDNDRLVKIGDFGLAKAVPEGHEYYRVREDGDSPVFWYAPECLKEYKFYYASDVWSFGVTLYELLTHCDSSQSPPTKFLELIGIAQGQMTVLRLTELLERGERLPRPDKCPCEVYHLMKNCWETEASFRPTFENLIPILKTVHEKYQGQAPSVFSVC
# EXPERIMENT_DESCRIPTION: JAK assay (KINASE-GLO luminescent kinase assay), TYK2
# Format: biochemical
# CONDITION_DETAILS: 10 nM JAK enzyme, 800 nM Abl peptide, room temperature 75 min
PROPERTY_NAME: IC50

- COMPOUND: "Cc1cnc(Nc2ccccn2)nc1-c1cnn(CC2(Cl)CC2)c1 [CC1═C(N═C(NC2═CC═CC═N2)N═C1)C3═C[N]]"
  ASSAY_VALUE: "< 100000 nM"
- COMPOUND: "CCS(=O)(=O)N1CC(CF)(Cn2cc(-c3nc(Nc4cc(C)ns4)ncc3Cl)cn2)C1 [CC[S](═O)(═O)N1CC(CF)(C[N]2C═C]"
  ASSAY_VALUE: "< 100 nM"
- COMPOUND: "Cc1cnc(Nc2cccc(CNC(=O)CN(C)C)c2)nc1-c1cnn(CC2(CF)CC2)c1"
  ASSAY_VALUE: "< 100 nM"
- COMPOUND: "COCCOc1ccc(Nc2ncc(C)c(-c3cnn(CC4(CF)CC4)c3)n2)cc1"
  ASSAY_VALUE: "< 100 nM"
- COMPOUND: "Cc1cnc(Nc2cccc(C(N)=O)c2)nc1-c1cnn(CC2(CF)CC2)c1"
  ASSAY_VALUE: "< 10 nM"
- COMPOUND: "Cc1cnc(Nc2ccc(CN3CCN(C)CC3)cc2)nc1-c1cnn(CC2(CF)CC2)c1"
  ASSAY_VALUE: "< 100 nM"
- COMPOUND: "N#CCCn1cc(-c2nc(Nc3ccc(N4CCOCC4)c(F)c3)ncc2Cl)cn1"
  ASSAY_VALUE: "< 10 nM"
- COMPOUND: "Cn1cc(Nc2ncc(Cl)c(-c3cnn(CCC4CC4)c3)n2)cn1 [C[N]1C═C(NC2═NC(═C]"
  ASSAY_VALUE: "< 100 nM"
- COMPOUND: "Cc1cnc(Nc2ccc(N3CC(N(C)C)C3)cc2)nc1-c1cnn(CC2(CF)CC2)c1"
  ASSAY_VALUE: "< 100 nM"
- COMPOUND: "N#CCC1(Cn2cc(-c3ccnc(Nc4cc(CO)ns4)n3)cn2)CC1 [OCC1═NSC(═C1)NC2═NC(═CC═N2)C3═C[N]]"
  ASSAY_VALUE: "< 10 nM"
- COMPOUND: "COc1cnc(Nc2ccc(N3CCN(C)CC3)cc2)nc1-c1cnn(CC2(Cl)CC2)c1"
  ASSAY_VALUE: "< 100 nM"
- COMPOUND: "N#CCCn1cc(-c2nc(Nc3cccc(CN4CC(F)C4)c3)ncc2Cl)cn1"
  ASSAY_VALUE: "< 10 nM"
- COMPOUND: "Cn1ccc(Nc2ncc(Cl)c(-c3cnn(CC4(C#N)COC4)c3)n2)cc1=O"
  ASSAY_VALUE: "< 1000 nM"
- COMPOUND: "Cc1cnc(Nc2ccc(CO)c(CO)c2)nc1-c1cnn(CC2(CF)CC2)c1"
  ASSAY_VALUE: "< 10 nM"
- COMPOUND: "Cc1cnc(Nc2ccc(N3CC4(COC4)C3)cc2)nc1-c1cnn(CC2(CF)CC2)c1 [CC1═C(N═C(NC2═CC═C(C═C2)N3CC4]"
  ASSAY_VALUE: "< 100 nM"
